tested on: A375/DR (dabrafenib-resistant) cells; test: Cell proliferation assay (SRB); assay type: cell-based, human; details: Homo sapiens, A-375; A375/DR cells, 72 h, SRB assay
pIC50: −log10 of the molar value.
Measured attribute: pIC50

Chem smiles: CNC(=O)Nc1ccc(-c2ccc3ncc4c(c3c2)n(-c2cccc(C(F)(F)F)c2)c(=O)n4C)cn1
Assay result: 8.47

====

molecular target: PI3Kα (Homo sapiens)
Sequence (P42336 whole entry): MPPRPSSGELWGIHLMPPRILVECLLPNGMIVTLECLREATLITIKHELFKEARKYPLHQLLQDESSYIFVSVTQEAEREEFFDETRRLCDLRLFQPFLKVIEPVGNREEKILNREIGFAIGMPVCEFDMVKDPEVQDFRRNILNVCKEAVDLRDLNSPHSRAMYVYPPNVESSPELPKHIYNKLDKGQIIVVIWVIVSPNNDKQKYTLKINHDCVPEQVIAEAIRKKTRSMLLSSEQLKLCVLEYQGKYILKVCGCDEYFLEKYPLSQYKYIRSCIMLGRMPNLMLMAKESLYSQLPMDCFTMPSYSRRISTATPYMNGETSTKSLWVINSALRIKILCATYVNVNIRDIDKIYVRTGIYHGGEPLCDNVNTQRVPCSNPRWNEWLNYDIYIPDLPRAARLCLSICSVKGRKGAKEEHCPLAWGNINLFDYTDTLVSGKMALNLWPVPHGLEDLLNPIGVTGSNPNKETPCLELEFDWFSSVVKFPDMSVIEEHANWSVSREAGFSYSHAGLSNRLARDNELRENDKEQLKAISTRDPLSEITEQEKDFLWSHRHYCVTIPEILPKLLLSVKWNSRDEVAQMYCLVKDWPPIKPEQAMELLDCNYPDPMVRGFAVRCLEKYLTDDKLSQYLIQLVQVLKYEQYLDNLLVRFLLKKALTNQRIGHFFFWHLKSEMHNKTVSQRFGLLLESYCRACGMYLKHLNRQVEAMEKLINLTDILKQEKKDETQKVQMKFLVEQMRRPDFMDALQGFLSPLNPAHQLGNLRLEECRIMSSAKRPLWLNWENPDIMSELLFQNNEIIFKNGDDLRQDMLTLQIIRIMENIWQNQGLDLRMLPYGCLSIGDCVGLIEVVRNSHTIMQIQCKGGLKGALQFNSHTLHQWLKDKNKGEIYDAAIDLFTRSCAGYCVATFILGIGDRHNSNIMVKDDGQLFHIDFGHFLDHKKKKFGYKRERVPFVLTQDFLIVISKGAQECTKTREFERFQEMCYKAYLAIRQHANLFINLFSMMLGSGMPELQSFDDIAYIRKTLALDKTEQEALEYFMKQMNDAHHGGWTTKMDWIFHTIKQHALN
Sequence (P27986 whole entry partner): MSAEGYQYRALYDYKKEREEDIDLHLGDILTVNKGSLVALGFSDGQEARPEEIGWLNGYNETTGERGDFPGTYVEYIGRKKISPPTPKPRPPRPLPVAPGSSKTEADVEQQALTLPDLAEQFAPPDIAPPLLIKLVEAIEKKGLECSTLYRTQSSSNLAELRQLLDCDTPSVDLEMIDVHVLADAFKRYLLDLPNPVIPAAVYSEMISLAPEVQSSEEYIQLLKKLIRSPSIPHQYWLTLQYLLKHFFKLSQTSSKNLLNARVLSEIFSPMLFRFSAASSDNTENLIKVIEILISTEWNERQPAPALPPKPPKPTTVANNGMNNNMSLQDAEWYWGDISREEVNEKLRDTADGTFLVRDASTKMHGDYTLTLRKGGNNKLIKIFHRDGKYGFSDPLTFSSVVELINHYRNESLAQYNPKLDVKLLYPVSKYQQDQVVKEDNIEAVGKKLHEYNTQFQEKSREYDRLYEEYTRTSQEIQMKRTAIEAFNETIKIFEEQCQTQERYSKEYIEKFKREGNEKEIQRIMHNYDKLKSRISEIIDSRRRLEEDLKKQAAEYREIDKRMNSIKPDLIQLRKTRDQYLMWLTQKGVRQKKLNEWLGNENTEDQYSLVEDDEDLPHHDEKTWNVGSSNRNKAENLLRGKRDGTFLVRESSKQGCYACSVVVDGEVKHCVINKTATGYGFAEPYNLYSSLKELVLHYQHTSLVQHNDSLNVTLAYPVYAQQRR

Chem smiles: CNC(=O)Nc1ccc(-c2ccc3ncc4c(c3c2)n(-c2cccc(C(F)(F)F)c2)c(=O)n4C)cn1
IC50: 0.1 nM

====

tested on: panel of human tumor cell lines; assay: Cell proliferation assay (SRB), panel of human tumor cell lines; assay type: cell-based; conditions: 72 h, read-out: IC50 values, proliferation, range over all tested tumor cells
pIC50: −log10 of the molar value.
Measured attribute: pIC50

Chem smiles: CNC(=O)Nc1ccc(-c2ccc3ncc4c(c3c2)n(-c2cccc(C(F)(F)F)c2)c(=O)n4C)cn1
Assay result: 7.86 to 8.54

====

Experiment: Pharmacokinetic study in U-87MG tumor-bearing mice
Format: in vivo, Balb/cA-nude mice
Settings: female, Balb/cA-nude, mouse, plasma, single oral dose 10 mg/kg, read-out: Cmax in plasma
Description: Female, 5–6-wk-old Balb/cA-nude mice were purchased from Shanghai Laboratory Animal Center, Chinese Academy of Sciences (Shanghai, China). […] Tumor volume was calculated as (length × width^2)/2. Pharmacokinetic/pharmacodynamic studies were carried out as described previously. […] Concentrations of SHR8443 in plasma and tissue were determined by HPLC/tandem mass spectrometry. Tumor samples were analyzed by Western blotting. […]
Measured attribute: Cmax

Compound: CNC(=O)Nc1ccc(-c2ccc3ncc4c(c3c2)n(-c2cccc(C(F)(F)F)c2)c(=O)n4C)cn1 [SHR8443]
Assay result: 735 ng/mL

====

assay: Pharmacokinetic study in U-87MG tumor-bearing mice; assay type: in vivo, Balb/cA-nude mice; conditions: female, Balb/cA-nude, mouse, tumor tissue, single oral dose 10 mg/kg, read-out: Cmax in tumor tissue

Chem smiles: CNC(=O)Nc1ccc(-c2ccc3ncc4c(c3c2)n(-c2cccc(C(F)(F)F)c2)c(=O)n4C)cn1
Cmax [ng/g]: 181

====

target: PI3Kγ (Homo sapiens, UniProt P48736)
Sequence (P48736 whole entry): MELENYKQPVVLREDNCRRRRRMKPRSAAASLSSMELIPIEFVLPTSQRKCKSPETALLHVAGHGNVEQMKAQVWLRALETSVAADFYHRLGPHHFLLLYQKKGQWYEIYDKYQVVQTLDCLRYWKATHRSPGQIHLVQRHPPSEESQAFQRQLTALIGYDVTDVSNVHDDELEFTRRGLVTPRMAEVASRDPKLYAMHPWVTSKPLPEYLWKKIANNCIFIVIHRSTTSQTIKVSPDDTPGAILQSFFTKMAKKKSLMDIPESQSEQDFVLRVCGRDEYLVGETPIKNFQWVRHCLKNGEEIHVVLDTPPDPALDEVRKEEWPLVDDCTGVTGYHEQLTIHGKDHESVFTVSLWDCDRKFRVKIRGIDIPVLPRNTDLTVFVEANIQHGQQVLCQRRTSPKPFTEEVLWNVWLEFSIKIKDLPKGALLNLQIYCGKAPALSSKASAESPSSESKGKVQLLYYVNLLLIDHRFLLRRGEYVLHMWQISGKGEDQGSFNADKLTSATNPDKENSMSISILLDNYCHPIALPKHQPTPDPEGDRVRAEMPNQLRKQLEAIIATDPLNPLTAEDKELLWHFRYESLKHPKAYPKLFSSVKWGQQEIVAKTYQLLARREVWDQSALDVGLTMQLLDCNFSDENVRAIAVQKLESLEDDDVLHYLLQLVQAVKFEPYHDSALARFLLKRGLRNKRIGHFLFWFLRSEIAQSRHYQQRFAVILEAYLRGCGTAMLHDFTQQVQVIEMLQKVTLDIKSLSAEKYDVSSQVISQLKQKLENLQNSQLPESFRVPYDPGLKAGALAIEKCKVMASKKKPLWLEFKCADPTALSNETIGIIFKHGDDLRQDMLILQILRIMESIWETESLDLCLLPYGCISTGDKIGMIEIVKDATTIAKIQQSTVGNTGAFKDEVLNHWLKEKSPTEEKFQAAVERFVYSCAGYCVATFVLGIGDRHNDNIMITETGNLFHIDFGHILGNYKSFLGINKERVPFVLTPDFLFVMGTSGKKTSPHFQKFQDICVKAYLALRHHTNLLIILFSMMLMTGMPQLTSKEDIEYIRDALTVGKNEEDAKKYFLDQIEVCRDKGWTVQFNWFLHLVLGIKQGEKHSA
pIC50: −log10 of the molar value.
Measured attribute: pIC50

Chem smiles: CNC(=O)Nc1ccc(-c2ccc3ncc4c(c3c2)n(-c2cccc(C(F)(F)F)c2)c(=O)n4C)cn1
Target under test: PI3Kγ (Homo sapiens, UniProt P48736)
Measured attribute: pIC50
Assay result: 9.70

The reported numbers originate from paper PMC5746119.
